Reference source: ChEMBL document CHEMBL4296182

System: Klebsiella pneumoniae
CONDITION SUMMARY: Concentration 20 uM; ASSAY_TEST Inhibition of Bacterial Growth; detection method Absorption (OD600); MEDIA CAMHB; plate type 384well; NBS; CORNING #3640; time 18 hr
Description: Antibacterial activity against Klebsiella pneumoniae MDR ATCC 70063 (CO-ADD:GN_003); MIC in CAMBH media using NBS plates, by OD(600)
Measured potencies and affinities stand elsewhere.
VALUE TYPE: Inhibition (%)
Respond with the bare value in %.

| COMPOUND | OBSERVED |
| --- | --- |
| CCOc1ccc(NC(=O)Nc2cc(C(C)C)ccc2C)cc1 | 0.84 |
| CCOC(=O)Cc1csc2nc(-c3ccccc3)nn12 | -2.91 |
| Nc1nc2cc([N+](=O)[O-])ccc2[nH]1 | 4.78 |
| c1ccc(-c2ccc3c(c2)NC(C2Nc4cc(-c5ccccc5)ccc4O2)O3)cc1 (stereo not drawn) | 24.34 |
| NCc1c(O)ccc2ccccc12 | 11.42 |

// Inhibition lookup, compound = `Cc1c(CCO)c(=O)n2n1CCCC2` , result: 7.18

compound CC1(C)OC2C(CO)OC(n3cnc4c(S)ncnc43)C2O1 (stereo not drawn) , Inhibition observed: 6.21

// Inhibition value for C=C(C)C/N=C/C1(C)CCC(C)=CO1 (stereo not drawn) : 5.17

N#Cc1cnn2ccn(C3OC(CO)C(O)C3O)c12 (stereo not drawn) has a reported Inhibition of 13.94

Entry `Cn1c(=O)c2nc(CNc3ccc(C(=O)O)cc3)[nH]c2n(C)c1=O` — recorded Inhibition = 4.5

Please fill in: Inhibition reported for `CCNc1ccccc1C(=O)O` = 16.83

Recorded result, `Cc1ccc2c(c1)C(=C(C#N)C#N)CCN2` , Inhibition: 22.07

The measured Inhibition associated with `c1ccc2c(c1)-c1cccc3cncc-2c13` reads 7.94
